# system: T1, SARS-CoV-2 spike receptor binding domain (RBD) (SARS-CoV-2, UniProt P0DTC2 319-541)
# T1 construct: also called SARS-CoV-2 RBD
# protocol-summary: ELISA

| binder | binding result |
| --- | --- |
| FN 8C (antibody, V domains shown) VH: QVQLVESGGGVVQPGRSLRLSCAASGFTFSSYGMHWVRQAPGKGLEWVAVISYDGSNKYYADTVKGRFTISRDNSKNTLYLQMNSLRAEDTAVYYCARERTYYDILTGYRHYYGMDVWGQGTTVTVSS VL: SYELTQPPSVSVAPGQTARITCGGNNIGSKSVHWYQQKPGQAPVLVVYDDSDRPSGIPERFSGSNSGNTATLTISRVEAGDEADYYCQVWDSSSDHWVFGGGTKLTVL | no binding |
| EW 9C (antibody, V domains shown) VH: EVQLVESGGGVVQPGASLRLSCVASGFTFNNFGFHWVRQAPGKGLEWLAVISYEGSKTYYAESLKGRFTISRDTSKNTVYLQMNSLRAEDTAVYYCARATSIFWFGEGRNWFDPWGQGTMVTVSS VL: EIVLTQSPGTVSLSAGERATLSCRASQNVGTDLAWYVQRPGQAPRLLIYDTSNKATGIPARFSGRGSGTDFTLTIDSLEPEDFAVYYCQQRSNWPLTFGGGTKVEIR | no binding |
| FN 2C (antibody, V domains shown) VH: EVQLLESGGGVVQPGRSLRLSCAASGFNFNNYGMHWVRQAPGKGLEWVATISYEGSKKFYVDSVKGRFTISKDNSKNTLYLQMNSLRVDDTAFYYCAKRREIFWLGEPPLSDAFDFWGQGTMVTVSS VL: QSVLTQPPSVSGAPGQRVTISCTGSGSNIGAGYDVHWYQFLPGTAPQLLIYGNNNRPSGVPDRFSGSKSGTSASLAITGLQAEDEADYYCQSYDSSLSGSVFGGGTKLTVL | no binding |
| FB 9D (antibody, V domains shown) VH: QVQLVESGAEVKKPGESLKISCQGSGYRFNSYWIAWVRQMPGKGLEWMGSIFPTDSDVRYNPSFQGQVTISADKSISFAYLQWSSLKASDTAIYYCARHWASMVRGVIRASHYYGMDVWGQGTTVTVSS VL: QPVLTQPPSASGSPGQSVTISCSGASSDIGKYNYVSWYQQLPGKAPKLLIYEVTKRPSGVPDRFSGSKSGNTASLTVSGLQADDEADYYCSSYAFGGSDTRVFGGGTKLTVL | no binding |
| FB 1E (antibody, V domains shown) VH: EVQLVESGAEVKKPGESLKISCQGSGYRFNSYWIAWVRQMPGKGLEWMGSIFPTDSDIRYNPSFQGQVTISADKSISIAYLQWSSLKASDTAIYYCARHWASMVRGVIRASHYYGMDVWGQGTTVTVSS VL: QSVLTQPPSASGSPGQSVTISCSGASSDIGDYNYVSWYQQLPGKAPKLLIYEVTKRPSGVPDRFSGSKSGNTASLTVSGLQADDEADYYCSSYAFGGSDIRVFGGGTKLAVL | no binding |
| FD 5E (antibody, V domains shown) VH: EVQLVESGGVVVQPGGSLRLSCAASGFTFDDYAMHWVRQAPGKGLEWVSLISWDGGSTYYADSVKGRFTISRDNSKNSLYLQMNSLRAEDTALYYCAKDSVRFRYYYGMDVWGQGTTVTVSS VL: EIVLTQSPATLSLSPGERATLSCRASQSVSSYLAWYQQKPGQAPRLLIYDASNRATGIPARFSGSGSGTDFTLTISSLEPEDFAVYYCQQRSNWPLTFGPGTKVDIK | no binding |
| EW 9B (antibody, V domains shown) VH: EVQLVQSGAEVKKPGASVKVSCKASGYTFTSYYMHWVRQAPGQGLEWMGIINPSGGSTSYAQKFQGRVTMTRDTSTSTVYMELSSLRSEDTAVYYCAREDGVVPAANLMISLEDYYYYGMDVWGQGTTVTVSS VL: EIVLTQSPATLSLSPGERATLSCRASQSVSSYLAWYQQKPGQAPRLLIYDASNRATGIPARFSGSGSGTDFTLTISSLEPEDFAVYYCQQRSNWPLTFGGGTKVDIK | no binding |
| FJ 4E (antibody, V domains shown) VH: QVQLVESGPGLVKPSETLSLTCSVSGGSISSGTYYWSWIRQQPGKGLEWIGYIYNTGRPYYNPFLKSRITISVDSSKNQFSLKLTSVTAADTAVYYCARDEYDSSDSGIQGHWFDPWGQGTLVTVSS VL: AIRMTQSPSSLSASVGDRVTITCRTSQNINSFLNWYQQKPGKGPNLLIYGAFTLQSGVPSRFSGSGSGTDFTLTISSLQPEDFATYFCQQSYSTPWTFGQGTKVEIK | no binding |
| FJ 1C (antibody, V domains shown) VH: QVQLQESGPGLVKPSETLSLTCTVSGYSISSGYYWGWIRQPPGKGLEWIGSIYHSGSTYYNPSLKSRVTISVDTSKNQFSLKLSSVTAADTAVYYCARDKALLWFGELFTNLFDYWGQGTLVTVSS VL: QSALTQPASVSGSPGQSITISCTGTSSDVGGYNYVSWYQQHPGKAPKLMIYEVSNRPSGVSNRFSGSKSGNTASLTISGLQAEDEANYYCSSYTSSSTLVFGGGTKLTVL | no binding |
| FM 1A (antibody, V domains shown) VH: EVQLLESGGGVVQPGRSLRLSCAASGFTFSSYGMHWVRQAPGKGLEWVAVIWYDGSNKYYADSVKGRFTISRDNSKNTLYLQMNSLRAEDTAVYYCAREGAVGATRGFDYWGQGTLVTVSS VL: SYELTQPPSVSVAPGQTARITCGGNNIGSKSVHWYQQKPGQAPVLVVYDDSDRPSGIPERFSGSNSGNTATLTISRVEAGDEADYYCQVWDSSSDQGVFGGGTKLTVL | no binding |
